All values here come from ChEMBL document CHEMBL1126839.

- Species on record: Cavia porcellus
- Test Details: Inhibition of K+ induced contractions of the isolated guinea pig ileum.
- Type: functional
Task for the reader: assign each of the following compounds its reported pIC50.
pIC50 is defined as minus the log10 of a concentration measured in mol/L.

Supply pIC50 value. Item: COC(=O)C1=C(C)N=C(C)/C(=C(/O)OC)C1c1cccc(-n2ccnc2)c1 (centres undefined) 6.07

Fill in pIC50 for record CCOC(=O)C1=C(C)N=C(C)/C(=C(/O)OCC)C1c1cccc(-c2cccnc2)c1 (centres undefined) 7.00

// fetch pIC50 given entry CCO/C(O)=C1\C(C)=NC(C)=C(C(=O)OC)C1c1cccc(-n2ccnc2)c1 (centres undefined) 6.59

# return recorded pIC50 for entry CC1=NC(C)=C(C(=O)OCC(C)C)C(c2cccc(-c3cccnc3)c2)/C1=C(\O)OCC(C)C (centres undefined) 5.82

State its pIC50: CCOC(=O)C1=C(CC)N=C(CC)/C(=C(/O)OCC)C1c1cccc(-n2ccnc2)c1 (centres undefined) 6.01

Tell me its pIC50 given CCO/C(O)=C1\C(COCCN)=NC(C)=C(C(=O)OC)C1c1cccc(-n2ccnc2)c1 (centres undefined) as the entry. 5.63

Recall and state the measured pIC50 for CCOC(=O)C1=C(C)N=C(C)/C(=C(/O)OCC)C1c1ccccc1-n1ccnc1 (centres undefined) . 6.34

Provide pIC50 value for the following compound: CCOC(=O)C1=C(C)N=C(C)/C(=C(/O)OCC)C1c1ccc(-n2ccnc2)cc1 (centres undefined) 4.64

Look up and state reported pIC50 for CCO/C(O)=C1\C(C)=NC(C)=C(C(=O)O)C1c1cccc(-n2ccnc2)c1 (centres undefined) 5.71

====

- Species: Oryctolagus cuniculus
- Test Details: Tested for [Ca2+] antagonism in rabbit renal artery
- Assay type: functional
Metric: pIC50
Recall that pIC50 is obtained by taking minus log10 of the concentration measured in molar.

Let me know recorded pIC50 for CCOC(=O)C1=C(C)N=C(C)/C(=C(/O)OCC)C1c1cccc(-n2ccnc2)c1 (configuration not stated) , thanks. 6.95

State its pIC50 for this compound: COC(=O)C1=C(C)NC(C)=C(C(=O)OC)C1c1ccccc1[N+](=O)[O-] 8.16

====

I'd appreciate it if you could supply IC50 values for the items below.
- Species on record: Cavia porcellus
- Test Details: Inhibition of K+ induced contractions of the isolated guinea pig ileum.
- Format: functional
The reply should contain only the number, in µM.

Return value of IC50 for input CCO/C(O)=C1\C(C)=NC(C)=C(C(=O)OCCN(C)Cc2ccccc2)C1c1cccc(-n2ccnc2)c1 (centres undefined) , no commentary. 0.05

// Input: COC(=O)C1=C(C)NC(C)=C(C(=O)OC)C1c1ccccc1[N+](=O)[O-] . Output its IC50 only. 0.004

Let me know recorded IC50 for CCOC(=O)C1=C(C)N=C(C)/C(=C(/O)OCC)C1c1cccc(Cn2ccnc2)c1 (centres undefined) , thanks. 1.67

Answer with the recorded IC50 of CCOC(=O)C1=C(C)N=C(C)/C(=C(/O)OCC)C1c1cccc(-n2ccnc2)c1 (centres undefined) only. 0.06

Identify IC50 associated with the compound CCO/C(O)=C1\C(C)=NC(C)=C(C(=O)OCCN(C)Cc2ccccc2)C1c1cccc(-c2cccnc2)c1 (centres undefined) 0.06

Please report IC50 for the following compound: CCO/C(O)=C1\C(COC)=NC(C)=C(C(=O)OC)C1c1cccc(-n2ccnc2)c1 (centres undefined) 1.95

# return recorded IC50 for entry CCOC(=O)C1=C(C)N(C)C(C)=C(C(=O)OCC)C1c1cccc(-n2ccnc2)c1 8.84
